EXPERIMENTAL SYSTEM: T1, human DLL3 (ACRO, DLL3-H52H4) (human, UniProt Q9NYJ7 27-492)
T1 construct: Bought
T1 sequence: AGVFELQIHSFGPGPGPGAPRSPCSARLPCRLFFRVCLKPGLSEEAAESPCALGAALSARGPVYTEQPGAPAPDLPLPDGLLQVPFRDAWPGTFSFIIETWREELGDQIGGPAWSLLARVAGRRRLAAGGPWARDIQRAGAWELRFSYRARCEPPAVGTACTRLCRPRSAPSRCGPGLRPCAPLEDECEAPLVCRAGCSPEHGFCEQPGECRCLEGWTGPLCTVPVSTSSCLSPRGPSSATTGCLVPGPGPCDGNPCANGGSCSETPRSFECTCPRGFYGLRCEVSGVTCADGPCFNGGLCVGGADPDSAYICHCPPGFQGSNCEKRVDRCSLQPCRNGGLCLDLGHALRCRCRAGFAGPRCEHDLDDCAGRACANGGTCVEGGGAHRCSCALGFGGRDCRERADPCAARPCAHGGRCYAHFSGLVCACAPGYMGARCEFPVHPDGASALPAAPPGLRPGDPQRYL
RUN DESCRIPTION: SPR Biacore 8K, Ab captured on Protein A
OBSERVATION TYPE: pKd
Give bare numbers, as −log10 of the molar value.

Please give pKd for each item listed below.
1. hu6L2H2 (antibody, human IgG1, kappa, V domains shown) VH: EVQLVQSGAEVKKPGASVKVSCKASGYTFTDYYMNWVRQAPGQRLEWMGIINPYSGVTIYNHKFKGRVTLTVDKSANTAYMELSSLRSEDTAVYYCARQDSLLDYAMDYWGQGTTVTVSS VL: DIQMTQSPSSLSASVGDRVTITCHASQGISGNMGWLQQKPGKAPKGLIYHGANLEDGVPSRFSGSGSGADYTLTISSLQPEDFATYYCVQYAQFPYTFGGGTKVEIKR
2. hu98L2H1 (antibody, human IgG1, kappa, V domains shown) VH: EVQLVESGGGLVQPGGSLRLSCAASGFTFSDYGIHWVRQAPGKGLEWVAYISSGGYTIYYADTVKGRFTISRDNAKNSLYLQMNSLRAEDTAVYYCARGDYDDIFYTMDYWGQGTTVTVSS VL: DIQMTQSPSSLSASVGDRVTITCRASRDITKFLNWYQQKPGKAVKLLIYYTSRLHSGVPSRFSGSGSGTDYTLTISSLQPEDFATYYCQQGNTLPWTFGGGTKVEIKR
3. hu30L5H9 (antibody, human IgG1, kappa, V domains shown) VH: EVRLVQSGAEVKKPGASVKVSCKASGYTFTDYYMNWVRQAPGQSLEWIGIINPYTGDTSYNQKFRGRATLTVDKSASTAYMELSSLRSEDTAVYYCARYHYGPHLEGYFDVWGQGTTVTVSS VL: DIQMTQSPSSLSASVGDRVTITCKASENVGYVSWYQQKPGKSPKLLIYGASNRYTGVPDRFSGSGSGTDFTLTISSLQPEDFATYYCGQSYSYPLTFGSGTKLEIKR
4. hu30L2H6 (antibody, human IgG1, kappa, V domains shown) VH: EVRLVQSGAEVKKPGASVKVSCKASGYTFTDYYMNWVRQAPGQSLEWMGIINPYNVDTSYNQKFRGRVTLTVDKSASTAYMELSSLRSEDTAVYYCARYHYGPHLEGYFDVWGQGTTVTVSS VL: DIVMTQSPDSLAVSLGERATINCKASENVGYVSWYQQKPGQPPKLLIYGASNRYTGVPDRFSGSGSATDFTLTISSLQAEDVAVYHCGQSYSYPLTFGQGTKLEIKR
5. hu6L1H1 (antibody, human IgG1, kappa, V domains shown) VH: EVQLVQSGAEVKKPGASVKVSCKASGYTFTDYYMNWVRQAPGQRLEWMGIINPYSGVTIYNHKFKGRVTITVDKSASTAYMELSSLRSEDTAVYYCARQDSLLDYAMDYWGQGTTVTVSS VL: DIQMTQSPSSLSASVGDRVTITCHASQGISGNMGWLQQKPGKAPKGLIYHGANLEDGVPSRFSGSGSGTDFTLTISSLQPEDFATYYCVQYAQFPYTFGGGTKVEIKR

[8.79, 9.57, 8.61, 8.97, 8.55]
